# system under test: LRP6 E1E2 protein (human) (UniProt O75581)
# Sequence (O75581 20-630 limits assumed): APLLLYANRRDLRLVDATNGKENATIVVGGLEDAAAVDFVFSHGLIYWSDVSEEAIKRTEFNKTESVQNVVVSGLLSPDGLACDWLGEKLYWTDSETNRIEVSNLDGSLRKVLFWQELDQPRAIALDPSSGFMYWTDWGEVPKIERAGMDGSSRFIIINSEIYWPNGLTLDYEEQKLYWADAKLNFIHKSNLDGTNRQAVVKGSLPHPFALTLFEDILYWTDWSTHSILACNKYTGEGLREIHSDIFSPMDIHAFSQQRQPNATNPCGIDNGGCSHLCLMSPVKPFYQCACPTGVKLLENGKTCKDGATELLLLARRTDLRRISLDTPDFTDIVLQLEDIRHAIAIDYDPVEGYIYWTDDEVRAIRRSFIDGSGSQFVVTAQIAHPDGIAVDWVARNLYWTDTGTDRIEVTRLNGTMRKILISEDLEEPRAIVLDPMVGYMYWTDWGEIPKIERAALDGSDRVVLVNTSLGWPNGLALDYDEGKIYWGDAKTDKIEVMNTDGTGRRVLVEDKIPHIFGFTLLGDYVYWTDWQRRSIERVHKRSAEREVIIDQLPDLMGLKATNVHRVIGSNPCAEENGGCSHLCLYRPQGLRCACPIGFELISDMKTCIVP
# experiment description: spot phage ELISA
reported endpoint: ELISA

In: Bench note: what ELISA did GCMNHVKARRCKQDSDCLAGCVCGPNGFCG (designed binder) [LRP6_CKP3] show?
Out: 2.93

In: Quick one: GCSNYVKRCKQDSDCLAGCVCSPGGRCG (designed binder) [LRP6_CKP17]
Out: 3.09

In: Quick one: GCRSGNTIRKRECKQDSDCLAGCVCGGPGGCG (designed binder) [LRP6_CKP9]
Out: 2.97
